System: PCSK9 mRNA
Assay: PCSK9 siRNA screening in HepG2 cells (lipofectamine 2000 transfection, PCSK9 mRNA by Quantigene, normalized to GAP-DH)
Format: cell-based, human
Settings: 30 nM siRNA
In the oligonucleotide strings, read from the 5' end, every base follows the letter of its sugar. An asterisk marks phosphorothioate; unmarked linkages are phosphodiester. Other units and linkages are bracketed, terminal groups are in braces. A string of capitals states the bases alone. d = 2'-deoxy (DNA); m = 2'-O-methyl; r = 2'-OH (RNA)
The entries below are paired with their reported Mean percent remaining mRNA transcript at siRNA concentration/in cell type 30 nM/HepG2.
Provide only the numeric value, understood in %.

>>> obs_value("AD-9581: PCSK9 siRNA (sense rUrGrCrGrCrGrUrGrCrUrCrArArCrUrGrCrCrAdT*dT; antisense rUrGrGrCrArGrUrUrGrArGrCrArCrGrCrGrCrAdT*dT)")
35
>>> obs_value("AD-9621: PCSK9 siRNA (sense rUrCrUrGrGrArUrGrGrCrArUrCrUrArGrCrCrAdT*dT; antisense rUrGrGrCrUrArGrArUrGrCrCrArUrCrCrArGrAdT*dT)")
77
>>> obs_value("AD-9708: PCSK9 siRNA (sense mCmCrArGmCrAmUmCmCrAmCrGmCmUmUmCmCmUrGdT*dT; antisense mCrArGrGrArArGrCrGrUrGrGrArUrGrCrUrGrGdT*dT)")
81
>>> obs_value("AD-9743: PCSK9 siRNA (sense rAmUrGmCmUrGmUmCmUrGmCmCrGrArGmCmCrGrGdT*dT; antisense rCrCrGrGrCrUrCrGrGmCrArGrAmCrArGmCrArUdT*dT)")
104

# input for lookup
Prompt: Hello, please tell me recorded Mean percent remaining mRNA transcript at siRNA concentration/in cell type 30 nM/HepG2 for this one: AD-9514: PCSK9 siRNA (sense rGrUrArCrCrGrGrGrCrGrGrArUrGrArArUrArCdT*dT; antisense rGrUrArUrUrCrArUrCrCrGrCrCrCrGrGrUrArCdT*dT)
Response: 57

---

Tested on: PCSK9 mRNA
Assay: PCSK9 siRNA screening in HepG2 cells (lipofectamine 2000 transfection, PCSK9 mRNA by Quantigene, normalized to GAP-DH)
Type: cell-based, human
Conditions: 3 nM siRNA
In the oligonucleotide strings, read from the 5' end, every base follows the letter of its sugar. An asterisk marks phosphorothioate; unmarked linkages are phosphodiester. Other units and linkages are bracketed, terminal groups are in braces. A string of capitals states the bases alone. d = 2'-deoxy (DNA); m = 2'-O-methyl; r = 2'-OH (RNA)
# label = Fulfilled if Mean percent remaining mRNA transcript at siRNA concentration/in cell type 3 nM/HepG2 < 30% else Not fulfilled

Take a look at these entries with their results.
>>> discrete_label("AD-9671: PCSK9 siRNA (sense rArGmUmCrArArGrGrArGmCrAmUrGrGrArAmUmCdT*dT; antisense rGrArUrUrCmCrArUrGrCrUrCrCrUrUrGrArCrUdT*dT)")
"Not fulfilled"
>>> discrete_label("AD-9547: PCSK9 siRNA (sense rCrUrCrGrCrArGrUrCrArGrArGrCrGrCrArCrUdT*dT; antisense rArGrUrGrCrGrCrUrCrUrGrArCrUrGrCrGrArGdT*dT)")
"Fulfilled"
>>> discrete_label("AD-9607: PCSK9 siRNA (sense rGrGrArGrCrUrGrGrUrGrCrUrArGrCrCrUrUrGdT*dT; antisense rCrArArGrGrCrUrArGrCrArCrCrArGrCrUrCrCdT*dT)")
"Fulfilled"
>>> discrete_label("AD-9736: PCSK9 siRNA which targets only human and monkey PCSK9 message; SEQ ID NO:1517/1518 (chain 1 AGGuGuAucuccuAGAcAcTsT; chain 2 GUGUCuAGGAGAuAcACCUTsT; as printed in the source, key not given here)")
"Fulfilled"
>>> discrete_label("AD-9680: dsRNA targeting the PCSK9 gene at 3530-3548; sense SEQ ID NO:1227, antisense SEQ ID NO:1228 (sense mUmUmCmUrArGrAmCmCmUrGmUmUmUmUrGmCmUmUdT*dT; antisense rArArGmCrArArArAmCrArGrGrUrCmUrArGrArAdT*dT)")
"Fulfilled"
>>> discrete_label("AD-9752: PCSK9 siRNA (sense mUrGrArArGrAmUrAmUmUmUrAmUmUmCmUrGrGrGdT*dT; antisense rCrCmCrArGrArAmUrArArAmUrArUrCrUrUmCrAdT*dT)")
"Not fulfilled"
>>> discrete_label("AD-9673: PCSK9 siRNA (sense mCmUmCrGmCrArGmUmCrArGrArGmCrGmCrAmCmUdT*dT; antisense rArGrUrGrCrGrCrUrCrUrGrArCrUrGrCrGrArGdT*dT)")
"Not fulfilled"
>>> discrete_label("AD-9765: PCSK9 siRNA (sense rGmUrGmCmUrGrArGrGmCmCrAmCrGrArGrGmUmCdT*dT; antisense rGrArCrCrUrCrGrUrGrGrCrCrUmCrArGmCrArCdT*dT)")
"Not fulfilled"

Attention now shifts to the item below.
Prompt: Criterion: Mean percent remaining mRNA transcript at siRNA concentration/in cell type 3 nM/HepG2 strictly below 30%. Is it met by AD-9324: PCSK9 siRNA (sense rGrCrCrArUrCrUrGrCrUrGrCrCrGrGrArGrCrCdT*dT; antisense rGrGrCrUrCrCrGrGrCrArGrCrArGrArUrGrGrCdT*dT) ?
Response: Not fulfilled
